molecular target: BRD4(2) (Homo sapiens); construct: the bromodomain-containing protein is BRD4(2); assay: BromoScan selectivity panel (Kd); assay type: binding; settings: Table 9; read-out: BromoScan Kd, nM BRD4(2)
ENDPOINT_NAME: Kd (nM)
Give bare numbers, in nM.

Reported Kd ( Cc1noc(C)c1-c1ccc(-c2nc3cnccn3c2NC(C)(C)C)cc1 [UMB32] ) = 31

---

molecular target: WDR9(2) (Homo sapiens, UniProt Q9NSI6); construct: WDR9(2); test: BromoScan selectivity panel (Kd); type: binding; settings: Table 9; read-out: BromoScan Kd, nM WDR9(2)
Sequence (Q9NSI6 1313-1418 limits assumed): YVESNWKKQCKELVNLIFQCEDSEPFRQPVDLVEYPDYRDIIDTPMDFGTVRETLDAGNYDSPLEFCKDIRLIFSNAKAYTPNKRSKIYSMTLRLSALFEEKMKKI
ENDPOINT_NAME: Kd

Entry Cc1noc(C)c1-c1ccc(-c2nc3cnccn3c2NC(C)(C)C)cc1 [UMB32] , WDR9(2) (Homo sapiens, UniProt Q9NSI6) data, Kd value: ≥ 40000 nM

---

target: EP300 (Homo sapiens); assay: BromoScan selectivity panel (Kd); assay type: binding
Sequence (Q09472 1040-1161 limits assumed): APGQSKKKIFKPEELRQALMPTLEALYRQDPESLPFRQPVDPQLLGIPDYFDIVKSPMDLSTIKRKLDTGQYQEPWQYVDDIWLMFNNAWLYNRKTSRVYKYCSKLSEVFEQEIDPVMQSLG
ENDPOINT_NAME: Kd (µM)
Answers are plain numbers, in µM.

List reported Kd for each of these compounds:
1. CCNC(=O)C[C@@H]1N=C(c2ccc(Cl)cc2)c2cc(OC)ccc2-n2c(C)nnc21 [I-BET, reference compound]
2. Cc1sc2c(c1C)C(c1ccc(Cl)cc1)=NC(CC(=O)OC(C)(C)C)c1nnc(C)n1-2 (centres unmarked) [JQ1, reference compound]

1. 71
2. 51

---

target: BRDT(2) (Homo sapiens, UniProt Q58F21); assay: BromoScan selectivity panel (Kd); assay type: binding; details: Table 9; read-out: BromoScan Kd, nM BRDT(2)
ENDPOINT_NAME: Kd (nM)
Numbers only, in nM.

Reported Kd ( Cc1noc(C)c1-c1ccc(-c2nc3cnccn3c2NC(C)(C)C)cc1 ) = 75

---

molecular target: BRD3(2) (Homo sapiens); construct: the bromodomain-containing protein is BRD3(2); test: BromoScan selectivity panel (Kd); assay type: binding; conditions: Table 9; read-out: BromoScan Kd, nM BRD3(2)
Sequence (Q15059 306-415 limits assumed): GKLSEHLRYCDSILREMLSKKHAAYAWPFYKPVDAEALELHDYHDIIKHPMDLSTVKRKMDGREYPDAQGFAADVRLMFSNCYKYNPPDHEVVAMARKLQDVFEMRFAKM
ENDPOINT_NAME: Kd (nM)
Give bare numbers, in nM.

Reported Kd ( Cc1noc(C)c1-c1ccc(-c2nc3cnccn3c2NC(C)(C)C)cc1 ) = 38

---

target: UniProt:O60885; assay: In vitro AlphaScreen protein binding assay (competition with biotinylated JQ1); settings: BRD4--IC50 (μM), Table 5; biochemical
ENDPOINT_NAME: IC50

Reported IC50 ( CCOC(=O)[C@]1(C)N[C@H](c2ccc(-c3c(C)noc3C)cc2)[C@@H]2C(=O)N(CC)C(=O)[C@@H]21 ) = > 100 µM

---

target: BRD3(1) (Homo sapiens); construct: the bromodomain-containing protein is BRD3(1); test: BromoScan selectivity panel (Kd); format: binding; settings: Table 9; read-out: BromoScan Kd, nM BRD3(1)
Sequence (Q15059 34-140 limits assumed): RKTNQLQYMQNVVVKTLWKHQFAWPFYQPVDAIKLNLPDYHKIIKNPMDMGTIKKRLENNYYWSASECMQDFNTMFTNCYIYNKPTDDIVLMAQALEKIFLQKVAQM
ENDPOINT_NAME: Kd (nM)
Answers are plain numbers, in nM.

Reported Kd ( Cc1noc(C)c1-c1ccc(-c2nc3cnccn3c2NC(C)(C)C)cc1 ) = 35

---

Provide the recorded EC50 for the entries that follow.
test system: BRD4-dependent Nut-Midline Carcinoma line 797; experiment: Cell viability (ATPlite) in BRD4 dependant cell line 797; details: Homo sapiens, read-out: 797--EC50 (μM)
One number for each entry, in µM.

{"columns": ["COMPOUND", "EC50 / µM"],
 "data": [
  ["Cc1noc(C)c1-c1ccc(-c2nc3cnccn3c2NC(C)(C)C)cc1F [UMB55]", 12.8],
  ["COc1ccc(Nc2c(-c3ccc(-c4c(C)noc4C)cc3)nc3ccc(Cl)cn23)cc1 [UMB23]", 20.7],
  ["COc1ccc(Nc2c(-c3ccc(-c4c(C)noc4C)cc3)nc3cnccn23)cc1 [UMB25]", 32.8],
  ["Cc1noc(C)c1-c1ccc(-c2nc3ccccn3c2NC2CCCCC2)cc1 [UMB28]", 5.07],
  ["Cc1noc(C)c1-c1ccc(-c2nc3cnccn3c2NC(C)(C)C)nc1 [UMB54]", 8.29]
]}

List reported EC50 for each of these compounds:
1. CCOC(=O)[C@]1(C)N[C@H](c2ccc(-c3c(C)noc3C)cc2)[C@@H]2C(=O)N(CC)C(=O)[C@@H]21 [UMB17]
2. Cc1noc(C)c1-c1ccc(-c2nc3cnccn3c2NC(C)C)cc1 [UMB57]
3. Cc1noc(C)c1-c1ccc(-c2nc3ccc(Cl)cn3c2NCc2ccccc2)cc1 [UMB20]
4. Cc1noc(C)c1-c1ccc(-c2nc3ccc(Cl)cn3c2NC(C)(C)C)cc1 [UMB31]
5. Cc1noc(C)c1-c1ccc(-c2nc3cnccn3c2NC(C)(C)C)cc1 [UMB32]
6. CCCCN1C(=O)c2ccccc2NC(=O)C1c1ccc(-c2c(C)noc2C)c(OC)c1 (centres unmarked) [UMB18]

1: 9.42; 2: 0.494; 3: 18.4; 4: 2.19; 5: 0.724; 6: 9.91

---

biological target: ATAD2B (Homo sapiens, UniProt Q9ULI0); experiment: BromoScan selectivity panel (Kd); format: binding
Sequence (Q9ULI0 953-1085 limits assumed): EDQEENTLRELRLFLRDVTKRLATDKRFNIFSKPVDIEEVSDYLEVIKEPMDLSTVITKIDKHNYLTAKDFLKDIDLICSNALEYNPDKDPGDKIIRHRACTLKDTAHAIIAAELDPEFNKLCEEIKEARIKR
Provide the recorded Kd for the entries that follow.

{"columns": ["MOLECULE", "ENDPOINT_NAME", "TEST_RESULT"],
 "data": [
  ["Cc1sc2c(c1C)C(c1ccc(Cl)cc1)=NC(CC(=O)OC(C)(C)C)c1nnc(C)n1-2 (centres unmarked) [JQ1, reference compound]", "Kd", "≥ 40 µM"]
]}

Entry CCNC(=O)C[C@@H]1N=C(c2ccc(Cl)cc2)c2cc(OC)ccc2-n2c(C)nnc21 [I-BET, reference compound] , ATAD2B (Homo sapiens, UniProt Q9ULI0) data, Kd value: ≥ 40 µM

---

molecular target: BAZ2B (Homo sapiens); assay: BromoScan selectivity panel (Kd); format: binding
Sequence (Q9UIF8 2054-2168 limits assumed): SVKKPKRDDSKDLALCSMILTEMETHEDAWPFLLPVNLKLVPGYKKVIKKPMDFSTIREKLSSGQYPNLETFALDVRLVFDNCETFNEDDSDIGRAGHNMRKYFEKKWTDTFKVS
ENDPOINT_NAME: Kd

{"columns": ["COMPOUND", "Kd"],
 "data": [
  ["CCNC(=O)C[C@@H]1N=C(c2ccc(Cl)cc2)c2cc(OC)ccc2-n2c(C)nnc21 [I-BET, reference compound]", "≥ 40 µM"]
]}

Moving on to another compound below.
Reported Kd ( Cc1sc2c(c1C)C(c1ccc(Cl)cc1)=NC(CC(=O)OC(C)(C)C)c1nnc(C)n1-2 (centres unmarked) [JQ1, reference compound] ) = ≥ 40 µM

---

molecular target: BRD2(2) (Homo sapiens); construct: the bromodomain-containing protein is BRD2(2); test: BromoScan selectivity panel (Kd); type: binding; conditions: Table 9; read-out: BromoScan Kd, nM BRD2(2)
Sequence (P25440 344-453 limits assumed): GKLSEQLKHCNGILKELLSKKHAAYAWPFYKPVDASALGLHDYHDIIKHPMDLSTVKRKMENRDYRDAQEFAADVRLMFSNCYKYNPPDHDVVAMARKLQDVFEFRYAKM
ENDPOINT_NAME: Kd (nM)
Numbers only, in nM.

Reported Kd ( Cc1noc(C)c1-c1ccc(-c2nc3cnccn3c2NC(C)(C)C)cc1 ) = 95

---

molecular target: BRD4 (Homo sapiens, UniProt O60885); assay: In vitro AlphaScreen protein binding assay (competition with biotinylated JQ1); settings: read-out: BRD4--IC50; Table 5; biochemical
ENDPOINT_NAME: pIC50
One number for each entry, as −log10 of the molar value.

{"columns": ["COMPOUND", "pIC50"],
 "data": [
  ["Cc1noc(C)c1-c1cccc(C2Nc3ccccc3NC3=C2C(=O)OC3)c1 (centres unmarked) [UMB27]", 5.69]
]}

Reported pIC50 ( CCCCN1C(=O)c2ccccc2NC(=O)C1c1ccc(-c2c(C)noc2C)c(OC)c1 (centres unmarked) [UMB18] ) = 4.89

---

target: ATAD2A (Homo sapiens); test: BromoScan selectivity panel (Kd); type: binding; conditions: Table 9; read-out: BromoScan Kd, nM ATAD2A
Sequence (Q6PL18 981-1108 limits assumed): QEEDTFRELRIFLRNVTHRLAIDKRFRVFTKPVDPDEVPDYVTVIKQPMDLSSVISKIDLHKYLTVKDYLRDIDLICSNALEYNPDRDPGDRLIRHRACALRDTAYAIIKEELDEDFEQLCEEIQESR
ENDPOINT_NAME: Kd

Reported Kd ( Cc1noc(C)c1-c1ccc(-c2nc3cnccn3c2NC(C)(C)C)cc1 ) = ≥ 40000 nM

---

target: CBP (Homo sapiens, UniProt Q92793); test: BromoScan selectivity panel (Kd); conditions: read-out: BromoScan Kd, nM CREBBP; Table 9
Sequence (Q92793 1081-1197 limits assumed): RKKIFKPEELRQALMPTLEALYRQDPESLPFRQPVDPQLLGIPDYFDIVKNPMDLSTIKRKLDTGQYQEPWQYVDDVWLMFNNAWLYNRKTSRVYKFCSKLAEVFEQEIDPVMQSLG
ENDPOINT_NAME: Kd (nM)
Answers are plain numbers, in nM.

Reported Kd ( Cc1noc(C)c1-c1ccc(-c2nc3cnccn3c2NC(C)(C)C)cc1 ) = 4500

---

molecular target: TRIM24(PHD Bromo.) (Homo sapiens); construct: TRIM24(PHD Bromo.); experiment: BromoScan selectivity panel (Kd); format: binding; conditions: Table 8; read-out: Kd (nM) TRIM24(PHD Bromo.)
Sequence (O15164 824-1006 limits assumed): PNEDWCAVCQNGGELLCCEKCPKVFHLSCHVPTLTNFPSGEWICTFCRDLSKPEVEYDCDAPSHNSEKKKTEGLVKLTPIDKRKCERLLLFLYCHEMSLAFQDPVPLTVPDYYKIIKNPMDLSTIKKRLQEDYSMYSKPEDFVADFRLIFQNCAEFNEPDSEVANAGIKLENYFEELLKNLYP
ENDPOINT_NAME: Kd

Reported Kd ( Cc1noc(C)c1-c1ccc(-c2nc3cnccn3c2NC(C)(C)C)cc1 [UMB32] ) = ≥ 40000 nM

---

target: TAF1L(2) (Homo sapiens); construct: TAF1L(2); assay: BromoScan selectivity panel (Kd); type: binding; conditions: Table 8; read-out: Kd (nM) TAF1L(2)
Sequence (Q8IZX4 1517-1626 limits assumed): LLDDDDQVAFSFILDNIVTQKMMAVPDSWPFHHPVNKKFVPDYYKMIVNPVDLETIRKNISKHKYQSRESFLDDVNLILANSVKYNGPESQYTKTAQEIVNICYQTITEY
ENDPOINT_NAME: Kd
Record the result as a number with its unit.

Reported Kd ( Cc1noc(C)c1-c1ccc(-c2nc3cnccn3c2NC(C)(C)C)cc1 [UMB32] ) = 1300 nM

---

molecular target: WDR9(2) (Homo sapiens, UniProt Q9NSI6); construct: WDR9(2); experiment: BromoScan selectivity panel (Kd); assay type: binding; settings: Table 8; read-out: Kd (nM) WDR9(2)
ENDPOINT_NAME: Kd

Reported Kd ( Cc1noc(C)c1-c1ccc(-c2nc3cnccn3c2NC(C)(C)C)cc1 [UMB32] ) = ≥ 40000 nM
